- EXPERIMENTAL_SYSTEM: T1, Biotin-huCGRPaSA (human, not fully specified; biotin (position not given))
- T1 construct: exact construct ('aSA') not explained; also called Biotin CGRPaSA; full-length (1-37) CGRP
- T1 peptide: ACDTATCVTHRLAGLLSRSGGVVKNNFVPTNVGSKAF
- ASSAY_DETAILS: ELISA, purified antibody; relative to reference 47-RM-20190815
Please go through the items and note down their Relative activity (%).
// return numeric value only (unit: %, not printed)

QUERY: What value of Relative activity (%) has been reported for the following binder? C71 (antibody, V domains shown, 1F5-HC + 1A2-LC2; chimeric, human constant regions) VH: EVQLQQSGPELVKPGASVKISCKTSGYTFIDFNMHWVKQSHGKSLEWIGYIYPYNGDVVYNQNFTNKATLTVDSSSSTAYMELRRVTSEDSAIYYCAREGLGGYWGQGTTLTVSS VL: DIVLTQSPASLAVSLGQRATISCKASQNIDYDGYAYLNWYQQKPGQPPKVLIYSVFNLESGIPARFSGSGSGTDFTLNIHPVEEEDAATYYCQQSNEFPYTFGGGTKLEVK
RESULT: 47.3

QUERY: Subsequent entry: C138 (antibody, V domains shown, 2B8-HC1 + 3H10-LC2; chimeric, human constant regions) VH: EVQLQQSGPELVKPGASVKISCKASGYTFTDYNMHWVKQSHGKSLEWIGNIYPYNGGTVYNQKFNNKATLTVHTSSSTAYMDLRSLTSDDSAVYYCAREGLGGYWGQGTTLTVSS VL: DIVLTQSPDSLAVSLGQRATISCKASQNIDYGGYSYMNWYQQKPGQPPKVLIYSVFNLESGIPARFSGSGSGTDFTLTIHPVEEEDAATYYCQQSNEAPYTFGGGTKLEIR
RESULT: 136

QUERY: Another: C92 (antibody, V domains shown, 1F5-HC + 3H10-LC2; chimeric, human constant regions) VH: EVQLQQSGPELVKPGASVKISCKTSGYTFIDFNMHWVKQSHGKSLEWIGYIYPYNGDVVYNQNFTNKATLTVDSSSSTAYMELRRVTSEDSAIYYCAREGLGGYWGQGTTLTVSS VL: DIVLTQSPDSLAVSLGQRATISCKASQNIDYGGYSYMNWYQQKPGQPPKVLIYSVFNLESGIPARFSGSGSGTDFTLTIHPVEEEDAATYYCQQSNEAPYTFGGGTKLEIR
RESULT: 68.5
